All values here come from ChEMBL document CHEMBL3352643.

# System: HeLa
# assay: Induction of cell cycle arrest in human HeLa cells assessed as accumulation at subG1 phase at 100 uM after 24 hrs by propidium iodide staining based flow cytometry (reference value: 1%)
# Format: functional
quantity-kind: Activity (%)
Please respond with the number in % and leave the unit unwritten.

Report Activity for COc1ccc2c(c1)CCCN2c1nc(C)nc2c1nc(C)n2C please.
8

---

# Test system: HeLa
# assay: Induction of cell cycle arrest in human HeLa cells assessed as accumulation at G1 phase at 20 uM after 24 hrs by propidium iodide staining based flow cytometry (reference value: 45%)
# Format: functional
quantity-kind: Activity (%)
Please respond with the number in % and leave the unit unwritten.

Please review the entries below; each comes with its answer.
- item-smiles: "COc1ccc(N(C)c2nc(C)nc3[nH]c(C)nc23)cc1"
  Activity / %: 39
- item-smiles: "COc1ccc2c(c1)CCCN2c1nc(C)nc2c1nc(C)n2C"
  Activity / %: 3
- item-smiles: "CCN(c1ccc(OC)cc1)c1nc(C)nc2c1nc(C)n2C"
  Activity / %: 39

Now take the following compound into account.
Report Activity for COc1ccc(N(C)c2nc(C)nc3c2nc(C)n3C)cc1 please.
18

---

# Test system: HeLa
# assay: Antiproliferative activity against human HeLa cells assessed as inhibition of cell proliferation after 4 days by Coulter counter based cell counting method
# Type: functional
# condition-context: 96 h
// NB: equality with 10 µM counts as n; only IC50 strictly below is y

Look over these answered cases.
- item-smiles: "COc1ccc2c(c1)CCCN2c1nc(C)nc2c1nc(C)n2C"
  discrete-label: "y"
- item-smiles: "CCN(c1ccc(OC)cc1)c1nc(C)nc2c1nc(C)n2C"
  discrete-label: "n"
- item-smiles: "COc1ccc(N(C)c2ncnc3c2nc(C)n3C)cc1"
  discrete-label: "n"

Is IC50 of COc1ccc(Nc2nc(C)nc3c2nc(C)n3C)cc1 strictly below 10 µM?
n

Further, for Cc1nc(N(C)c2ccc(OC(F)(F)F)cc2)c2nc(C)n(C)c2n1 ?
n

Further, for COc1ccc(N(C)c2nc(C)nc3[nH]c(C)nc23)cc1 ?
n

Further, for COc1cccc(N(C)c2nc(C)nc3c2nc(C)n3C)c1 ?
n

Further, for Cc1ccc(N(C)c2nc(C)nc3c2nc(C)n3C)cc1 ?
n

Further, for COc1ccc(N(C)c2nc(C)nc3c2ncn3C)cc1 ?
n

Further, for COc1ccc(N(C)c2nc(C)nc3c2nc(C)n3C)cc1 ?
y

---

// reported pIC50 per item
# assay: Antiproliferative activity against human HMEC1 cells assessed as inhibition of cell proliferation after 4 days by Coulter counter based cell counting method
# Type: functional
# condition-context: HMEC-1, 96 h
Schema: pIC50 number; meaning minus log10 of the concentration expressed in molar units.

Please review the entries below; each comes with its answer.
- item-smiles: "COc1ccc(N(C)c2nc(C)nc3[nH]c(C)nc23)cc1"
  pIC50: 5.15
- item-smiles: "COc1ccc2c(c1)CCCN2c1nc(C)nc2c1nc(C)n2C"
  pIC50: 5.64
- item-smiles: "COc1ccc(N(C)c2nc(C)nc3c2nc(C)n3C)cc1"
  pIC50: 5.14
- item-smiles: "CCN(c1ccc(OC)cc1)c1nc(C)nc2c1nc(C)n2C"
  pIC50: 5.06

Now take the following compound into account.
Report pIC50 for COc1ccc(N(C)c2nc(C)nc3c2ncn3C)cc1 please.
5.04
